Catalogue of growth inhibition readings, one per entry.
# assay: NCI Yeast Anticancer Drug Screen. Data for the sgs1 mgt1 strain (AID 161);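 note: 0% = growth of cultures given vehicle only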
# test.context: S. cerevisiae sgs1 mgt1 strain, stronger effect = higher value; at 50.0 µM unless noted
# Experimental: Growth inhibition of yeast strains with defined genetic alterations is measured as a screen for potential anti-cancer activity. Selected strains with alterations in DNA damage repair or cell cycle control were exposed to compounds and growth inhibition was measured relative to vehicle treated controls. The strain used in this assay is sgs1 mgt1
About 79,000 compounds went through this panel and 15% of them were active in at least one assay; those are over-represented in the sample as a whole.
readout: growth inhibition (%)

compound=O=CC(=O)O reported=15.7
compound=C=CCNc1nc(Cl)nc2c1cnn2C reported=-2.95
compound=CC1=C(C(=O)OC(C)(C)C)C(c2ccc([N+](=O)[O-])cc2)C(C(=O)OC(C)(C)C)=C(C)N1 reported=3.85
compound="N[N+]#COC1C(C(=O)NN)C1C(=O)NN (configuration not stated)" reported=-17.5
compound=CC(C)(C)C(=O)/C(=C/C(=O)O)C(C)(C)C reported=1.25
compound=CCCCCCCCCCSCC(=O)O reported=-15.5
compound=O=c1oc(-c2ccccc2CCl)nc2ccccc12 reported=15.8
compound=COc1ccc2c(c1)[n+](=O)c(C(=O)C/C(=N/NC(=O)c1ccccc1O)C(=O)Nc1ccc(Cl)c(C(F)(F)F)c1)c(C)n2[O-] reported=14.5
compound=Cc1ccc2ccccc2c1CN(C)C reported=-8.6
compound=CCOC(=O)c1c(-c2ccc([N+](=O)[O-])cc2)cn(-c2ccc(OC)cc2)c1C reported=12.4
compound=CCOC(=O)CSc1nc(-c2ccccc2)c(C#N)c(=O)[nH]1 reported=-5.4
compound=C=CCOCn1cnc2c(N)ncnc21 reported=-24.1

----------
# assay: NCI Yeast Anticancer Drug Screen. Data for the mlh1 rad18 strain (AID 175)
# test.context: S. cerevisiae mlh1 rad18 strain growth inhibition, stronger effect = higher value; at 50.0 µM unless noted
The panel holds about 79,000 compounds, 15% with a hit somewhere; the sample as a whole holds those more often.
Catalogue of growth inhibition readings, one per entry.
readout: growth inhibition (%)

compound=O=C(O)C1=Cc2ccccc2OC1 reported=-4.7
compound=COc1ccc(CCn2c(=O)c3ccccc3n(C)c2=O)cc1 reported=0.8
compound=COc1cc(OC)c(/C=N/N=C(\N)NO)c(OC)c1 reported=-9.75
compound=O=c1[nH]c(=O)c2nc(-c3cccnc3)cnc2[nH]1 reported=7.45
compound=Nc1nc(N)c(CCCCc2ccccc2)c(Cc2ccccc2)n1 reported=-7.4
compound="c1ccc(N=NC2(c3ccccc3)CC(c3ccccc3)=NN(c3ccccc3)C2NNc2ccccc2)cc1 (centres undefined)" reported=31.7
compound="CC1(C)C=C(C(c2cccc([N+](=O)[O-])c2)N2CCCCC2)C(=O)c2ccccc21 (centres undefined)" reported=-13.3
compound=NC1=NC(=O)/C(=C/c2ccccc2[N+](=O)[O-])C(N)=N1 reported=24.1
compound=CCOC=Nc1ccc(-n2cnc3c(Cl)ncnc32)cc1C reported=-17.2
compound=CON(C)C(=O)CNC(=O)OCC1c2ccccc2-c2ccccc21 reported=-29.3
compound=O=C(c1cccc(C(=O)N2CCOCC2)n1)N1CCOCC1 reported=7.15
compound="c1ccc(C2Cc3ccccc3C2c2ccccc2)cc1 (centres undefined)" reported=-13.3
compound=O=C1c2cccc3c([N+](=O)[O-])ccc(c23)C(=O)N1Cc1cccnc1 reported=99.4
compound="c1ccc(C2c3ccccc3CN2c2ccccc2)cc1 (centres undefined)" reported=2.35
compound="CCC(=O)OC(CCC1CCCO1)CCC1CCCO1 (centres undefined)" reported=-3.55
compound=CC/C(CC(=O)CCC(=O)Nc1c(C)cccc1C)=N\NC(=O)NN reported=-8.5
compound=OCC[P+](c1ccccc1)(c1ccccc1)c1ccccc1 reported=-11.3
compound=CCCc1[nH]n(-c2ccccc2)c(=O)c1N=Nc1cccc(C(F)(F)F)c1 reported=-7.95
compound="CCOC(=O)[C@]12C3C=CC(C3)C1C(=O)C1OC12 (some centres undefined)" reported=-45.1
compound="O=C1CC(c2ccccc2)n2c(nc3ccccc32)N1 (centres undefined)" reported=-64.2
compound="CCC(C)C(O)C(C(=O)O)C1CCCCC1 (centres undefined)" reported=26
compound=COC(=O)c1cc2ccc(OC(C)=O)c(OC(C)=O)c2cn1 reported=19.9
compound="CC1=C2CN(C(=O)OCC(C)C)CCC2C2=C(C(=O)c3ccccc3C2=O)C1C (centres undefined)" reported=44.5
compound=CC(=O)NC1=NC(=O)/C(=C/c2ccccc2Cl)N1C reported=28.6
compound=CCCOCC[N+](C)(C)C reported=-8.9
compound=CCOC(=O)c1oc2cc(O)ccc2c(=O)c1-c1ccc(OC)c(OC)c1 reported=11.8
compound=CC(=O)OC(OC(C)=O)c1ccccc1 reported=11.7
compound=O=S(=O)(O)c1cc(Nc2ccnc3ccccc23)c2c(S(=O)(=O)O)cc(S(=O)(=O)O)cc2c1 reported=19.8
compound=N#CC(C#N)=C1SC(=Nc2ccccc2)C(=Nc2ccccc2)N1c1ccccc1 reported=16.4
compound=CC(=O)CC(=O)Nc1ccc2ccccc2c1 reported=-14.6
compound=COC(=O)CSc1cc(Cl)c(C)cc1S(=O)(=O)Nc1n[nH]c(N)n1 reported=10.2
compound="O=C(Nc1ccc(Br)cc1)C(Br)C(Br)c1ccccc1 (centres undefined)" reported=97.9
compound=Cn1c2ccccc2c(=O)c2[nH]c3ccccc3c21 reported=76.8
compound=Cc1cccc(NC(=O)Nc2ccccc2Cl)n1 reported=16.6
compound=COCNC(=S)c1ccc(C(N)=O)nc1C(=O)NC(C)(C)C reported=30.6
compound=CC(=O)NNS(=O)(=O)c1ccccc1 reported=16.8
compound="CC1C=NNC1=O (centres undefined)" reported=4.5
compound=CSC(SC)c1cc(C)no1 reported=-9.15
compound=CC(C)N(C(=S)S)C(C)C reported=-19.2
compound=CCOC(=O)c1cc([N+](=O)[O-])cnc1C reported=2.4
compound=O=C(Nc1ccccn1)c1ccccc1Cl reported=19.3
compound="CC(=O)CCCCC(=O)Nc1ccc(CC(NC(=O)OC(C)(C)C)C(=O)NCC(=O)OCc2ccccc2)cc1 (centres undefined)" reported=-12.1
compound="CCCCC(CC)OC(=O)c1ccccc1C (centres undefined)" reported=-23.8
compound=CCOC(=O)/C(F)=C/c1ccc(C#N)cc1 reported=15.8
compound=CCN(CC)C(=O)C1CCN(CCOc2ccccc2)CC1 reported=-26
compound=C=C[C@@]1(C)C=C2CC[C@@H]3[C@](C)(CCC[C@@]3(C)C(=O)O)[C@H]2CC1 reported=55.2
compound=Oc1ccccc1-c1cc(-c2ccccc2)nc(NCCCNc2nc(-c3ccccc3)cc(-c3ccccc3O)n2)n1 reported=14.2
compound="OCC(O)COc1ccc(Cl)cc1 (centres undefined)" reported=9
compound="CN1CCCC1CCN (centres undefined)" reported=6.15

----------
# assay: NCI Yeast Anticancer Drug Screen. Data for the mec2-1 strain (AID 157)
# test.context: S. cerevisiae mec2-1 strain, stronger effect = higher value; at 50.0 µM unless noted
Compounds without any hit were thinned out: in the full panel of roughly 79,000, 15% have a hit.
Catalogue of growth inhibition readings, one per entry.
readout: growth inhibition (%)

compound=C=C(C)C(C(=O)OCC)C(=O)OCC readout_units=% reported=-2.75
compound=CCOc1c(N=Nc2cccc(Cl)c2)c(C)nn1C(N)=S readout_units=% reported=3.35
compound=N.N.N.N.O=C([O-])O.O=C([O-])[O-].[Co+3] readout_units=% reported=3.4
compound=C/C(=N/N)c1ccc2[nH]c3c(C)cc([N+](=O)[O-])c(C)c3c2c1 readout_units=% reported=-6.9
compound=C=CCOC(=O)CCCC1=NC2=CC=CC3=NC(C)=NC(=N1)N23 readout_units=% reported=2.35
compound="C1C2OC2CC2OC12 (stereo unspecified)" readout_units=% reported=-9.35
compound=CC(=O)NCCc1ccccc1 readout_units=% reported=20.9
compound=Cc1ccc(NC(=O)C(=O)CC(=O)c2sc(Nc3c(C)cccc3C)nc2C)cc1C readout_units=% reported=-9.95
compound="CC(=O)OCC1OC(OC(C)=O)C(NC(=O)c2ccccc2)C(OC(C)=O)C1OC(C)=O (stereo unspecified)" readout_units=% reported=-3.45
compound="CC1CC1C(N)C1CC1C (stereo unspecified)" readout_units=% reported=3.15
compound=CCN(CC)CC(=O)Nc1ccc2c(c1)C(=O)c1ccc(NC(=O)CN(CC)CC)cc1C2=O readout_units=% reported=8
compound=COc1ccc2oc(=N)c(C(=O)Nc3ccccc3)cc2c1 readout_units=% reported=20.1
compound=COc1ccc(/C(=C(/c2ccc(OC)cc2)C2CC2)C2CC2)cc1 readout_units=% reported=7.25
compound="CC1CCCN1CCOC(=O)C(c1ccccc1)C1CCCC1 (stereo unspecified)" readout_units=% reported=35.5
compound=Cc1cc(Cl)ccc1NC(=O)Oc1ccc(C#N)cc1 readout_units=% reported=-18.4
compound=CCCCc1cc(C(=O)OC/C(C)=N/NC(N)=O)c2ccccc2n1 readout_units=% reported=25.8
compound=O=C(Nc1ccccc1Cl)c1cc2cc(N=Nc3ccc(Br)cc3)ccc2oc1=O readout_units=% reported=9.75
compound=COC(=O)CCSCc1ccccc1 readout_units=% reported=2.55
compound="CC1CC(=O)c2c(ccc3c2C(=O)c2cccc(O)c2C3=O)C1 (stereo unspecified)" readout_units=% reported=-0.45
compound=O=C(NNC(=O)c1ccc(Cl)c(Cl)c1)c1ccccc1 readout_units=% reported=3.1
compound=Cc1ccc2cc(-c3ccccc3)[nH]c2c1 readout_units=% reported=-11.2
compound=Clc1ccc(N=Nc2nc3ccccc3nc2N=Nc2ccc(Cl)cc2Cl)c(Cl)c1 readout_units=% reported=-4.6
compound=CC(=O)N(C(C)=O)c1c(N)n(C)c(=O)[nH]c1=O readout_units=% reported=-4.85
compound=OCCCCCCCl readout_units=% reported=-24.8
compound=Cn1nnnc1NCc1ccccc1 readout_units=% reported=5.35
compound=COc1ccc(NC(C)=O)cc1 readout_units=% reported=3.2
